tested on: BMX; conditions: concentration: 1 μM,replicates: in singlicate; n = 1;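 also: KINOMEscan kinase panel screen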
Reported endpoint: %Inh (%)
Kindly answer with a numeric value in %, unit omitted.

Known %Inh results, listed for orientation:
COc1cc(Nc2nccc(N3CCC(NC(=O)c4cccc(C#N)c4)C3)n2)cc(OC)c1OC (centres unmarked) [GSK1379751]	0
O=C(Nc1ccc(Oc2ccc3nc(NC(=O)C4CC4)cn3n2)c(F)c1)c1cccn(-c2ccccc2)c1=O	46
Cc1cccc(-c2nc(Nc3ccncc3)c3sccc3n2)n1 [GW869641]	11
CN(c1ccccc1CNc1nc(Nc2ccc3c(c2)CC(=O)N3)ncc1C(F)(F)F)S(C)(=O)=O	39
OCCn1cc(-c2cnc3nnn(Cc4ccc5ncccc5c4)c3n2)cn1	0
COc1cc2c(Nc3ccc(NC(=O)c4ccccc4)cc3)ncnc2cc1OCCCN1CCOCC1 [GSK301329]	7
C[C@@H](Oc1cc(-n2cnc3cc(-c4cnn(C)c4)ccc32)sc1C(N)=O)c1ccccc1Cl [GSK580432]	22

Now for another entry.
# %Inh of CCn1c(-c2nonc2N)nc2cncc(Br)c21 [SB-738004] = 27

---

Below: a set of entries, each annotated with reported %Inh.
system: PCTK2; construct: gene CDK17; settings: concentration: 1 μM,replicates: in singlicate; n = 1
Kindly answer with a numeric value in %, unit omitted.

Known %Inh results, listed for orientation:
COc1cc2c(Nc3ccc(NC(=O)c4ccccc4)cc3)ncnc2cc1OCCCN1CCOCC1 [GSK301329]	0
Cn1ccc2ncnc(Oc3ccc(NC(=O)Nc4cncc(C(F)(F)F)c4)c(Cl)c3)c21	0
COc1cc(Nc2nccc(N3CCC(NC(=O)c4cccc(C#N)c4)C3)n2)cc(OC)c1OC (centres unmarked) [GSK1379751]	0

# %Inh of C[C@@H](Oc1cc(-n2cnc3ccc(-c4ccncc4)cc32)sc1C(N)=O)c1ccccc1Cl [GSK483724] = 0

# %Inh of COc1ccc(Nc2nccc(N3CCC(NC(=O)c4cccc(C#N)c4)C3)n2)cc1 (centres unmarked) [GSK1379730] = 0

# %Inh of CS(=O)c1ccc(-c2coc3ccc(-c4n[nH]c(=O)o4)cc23)cc1 (centres unmarked) = 2

---

tested on: S6K1; conditions: concentration: 1 μM,replicates: in singlicate; n = 1
Reported endpoint: %Inh (%)
Kindly answer with a numeric value in %, unit omitted.

CN1CCN(CCCNc2nccc(-c3c(-c4ccc(F)cc4)nn4cc(C(N)=O)ccc34)n2)CC1 [GW622475]	8
O=C(Nc1cccc(C(F)(F)F)c1)c1cccc(Oc2ccc3nccn3n2)c1	2
O=C(NCC1CC1)c1ccc(-c2cc(C(=O)NC3CC3)ccc2F)cc1 [GW810445]	0

# %Inh of FC(F)(F)c1cc(Br)cc(Nc2nccc(-c3cnn4ncccc34)n2)c1 [GW810578] = 4

# %Inh of N#Cc1cccc(C(=O)NC2CCN(c3ccnc(Nc4ccc(F)cc4)n3)C2)c1 (stereo not drawn) [GSK1379708] = 1

# %Inh of "CN(c1ccccc1CNc1nc(Nc2ccc3c(c2)CC(=O)N3)ncc1C(F)(F)F)S(C)(=O)=O" = 22

# %Inh of "Cn1ccc2ncnc(Oc3ccc(NC(=O)Nc4ccnc(C(F)(F)F)c4)c(Cl)c3)c21" = 0

# %Inh of Cc1ccc(Nc2ccnc(Nc3ccc4c(c3)CS(=O)(=O)C4)n2)cc1O.Cl [GW579362] = 1

# %Inh of COc1cc2nccc(Nc3ccc(Oc4ccccc4)cc3)c2cc1OC.Cl [GI261656] = 0

---

Below: a set of entries, each annotated with reported %Inh.
test system: CLK1; conditions: concentration: 1 μM,replicates: in singlicate; n = 1
Kindly answer with a numeric value in %, unit omitted.

Known %Inh results, listed for orientation:
Cc1ccc2c(-c3ccnc(Nc4ccc(C(F)(F)F)cc4)n3)cnn2n1 [GW819776]	83
O=C(NCC1CC1)c1ccc(-c2cc(C(=O)NC3CC3)ccc2F)cc1 [GW810445]	0
FC(F)(F)c1cc(Br)cc(Nc2nccc(-c3cnn4ncccc34)n2)c1 [GW810578]	99.2
COc1cc(Nc2nccc(N3CCC(NC(=O)c4cccc(C#N)c4)C3)n2)cc(OC)c1OC (stereo not shown) [GSK1379751]	4
CN1CCN(CCCNc2nccc(-c3c(-c4ccc(F)cc4)nn4cc(C(N)=O)ccc34)n2)CC1 [GW622475]	19

# %Inh of "O=C(NOCC1CC1)c1cc(Br)c(F)c(F)c1Nc1ccc(I)cc1Cl" = 0

# %Inh of Cl.Nc1n[nH]c2cc(-c3ccccn3)ccc12 [GSK2189892] = 23

# %Inh of COc1ccc(Nc2nccc(N3CCC(NC(=O)c4cccc(C#N)c4)C3)n2)cc1 (stereo not shown) [GSK1379730] = 11

# %Inh of CCN1CCN(CCCC(=O)Nc2n[nH]c3nc(-c4ccc(O)cc4)c(Br)cc23)CC1 [SB-731579] = 47

# %Inh of NC(=O)Nc1sc(-c2ccc(F)cc2)cc1C(N)=O [GW789449] = 9

---

system: CSNK1E; details: concentration: 1 μM,replicates: in singlicate; n = 1
Below: a set of entries, each annotated with reported %Inh.
Entry format: amount then unit.

Known %Inh results, listed for orientation:
Cl.Cl.NC[C@H](CC1CCCCC1)NC(=O)c1ccc(-c2ccnc3[nH]ccc23)s1	82%
CN(c1ccc2c(c1)nc(NCc1ccc(F)cc1)n2C)c1ccnc(Nc2ccc(CS(C)(=O)=O)cc2)n1.Cl	0%
CSc1nccc(-c2c(-c3ccc(F)cc3)ncn2CCCN2CCOCC2)n1.Cl	10%

# %Inh of "Cc1ccc(CC(=O)N2CCc3cc(-c4cn(C)c5ncnc(N)c45)ccc32)cc1" = 66%

# %Inh of "O=C(NCC1CC1)c1ccc(-c2cc(C(=O)NC3CC3)ccc2F)cc1" = 0%

---

test system: PIK4CB; construct: gene PI4KB; conditions: concentration: 1 μM,replicates: in singlicate; n = 1
Reported endpoint: %Inh (%)
Kindly answer with a numeric value in %, unit omitted.

# %Inh of "Cc1cccc2c(-c3ccncc3)c(-c3ccc(F)cc3)nn12.Cl" = 0

# %Inh of "CC(C)c1nc(-c2cccc(NS(=O)(=O)c3ccccc3)c2)c(-c2ccnc(Nc3ccc4c(c3)CN(C)CC4)n2)s1" = 33

# %Inh of "COc1cc2nccc(Nc3ccc(Oc4ccccc4)cc3)c2cc1OC.Cl" = 0

# %Inh of "O=C(Nc1ccc(Oc2ccc3nc(NC(=O)C4CC4)cn3n2)c(F)c1)c1cccn(-c2ccccc2)c1=O" = 0

# %Inh of COc1cccc(CNC(=O)NC2CCN(c3ccnc(Nc4cc(OC)c(OC)c(OC)c4)n3)C2)c1 (centres unmarked) = 67

# %Inh of "O=C(Nc1cccc(Oc2ccc3nccn3n2)c1)Nc1cccc(C(F)(F)F)c1" = 0

# %Inh of "C[C@@H]1CCN(C(=O)N2CCCC2)C[C@@H]1N(C)c1ncnc2[nH]ccc12" = 7

# %Inh of Cc1nnc(-c2ccc3occ(-c4ccc(S(C)=O)cc4)c3n2)o1 (centres unmarked) = 0

---

test system: TRKA; construct: gene NTRK1; conditions: concentration: 1 μM,replicates: in singlicate; n = 1
Quick rule for you: %Inh under 40% gets 1 (yes), anything else gets 0 (no).

CCN1CCN(CCCC(=O)Nc2n[nH]c3nc(-c4ccc(O)cc4)c(Br)cc23)CC1	1 (yes)
CN1CCN(CCCNc2nccc(-c3c(-c4ccc(F)cc4)nn4cc(C(N)=O)ccc34)n2)CC1	0 (no)
Cn1cc(-c2cccc3c(N)c(C(N)=O)nnc23)cn1	1 (yes)
CC(=O)Nc1ccc(-c2cc3ncnc(SCC(=O)O)c3s2)cc1	1 (yes)
CS(=O)(=O)Nc1ccc(-c2ccnc3[nH]ccc23)cc1	0 (no)

# input Field: below-cutoff. Rule: recorded %Inh strictly less than 40%. Subject: "CN1CCN(CCNc2nc3cc(Oc4ccc(NC(=O)Nc5cc(C(F)(F)F)ccc5F)cc4)ccc3[nH]2)CC1.Cl.Cl"
# output 1 (yes)

# input Field: below-cutoff. Rule: recorded %Inh strictly less than 40%. Subject: "CNC(=O)c1ccccc1Nc1nc(Nc2cccc(CS(C)(=O)=O)c2)ncc1C.O=CO"
# output 0 (no)

# input Field: below-cutoff. Rule: recorded %Inh strictly less than 40%. Subject: "COC(=O)c1cccc(NC(=O)NC2CCN(c3ccnc(NCc4ccc(F)cc4)n3)CC2)c1"
# output 1 (yes)

---

test system: TRKC; construct: gene NTRK3; settings: concentration: 1 μM,replicates: in singlicate; n = 1
Rule: Criterion met for %Inh not less than 20%, Criterion not met for anything less.

C[C@@H](Oc1cc(-n2cnc3cc(-c4cnn(C)c4)ccc32)sc1C(N)=O)c1ccccc1Cl [GSK580432]	Criterion met
COC(=O)c1cccc(NC(=O)NC2CCN(c3ccnc(Nc4cc(OC)c(OC)c(OC)c4)n3)C2)c1 (centres unmarked) [GSK1379767]	Criterion met
Cc1n[nH]c2cc(Nc3ccnc(Nc4cccc(CN5CCOCC5)c4)n3)ccc12 [GW682569]	Criterion met
CC(=O)Nc1nc2cnc(Nc3cc(NC(=O)c4cccc(CC(C)(C)C#N)c4)ccc3C)nc2s1	Criterion not met
Cn1ccc2ncnc(Oc3ccc(NC(=O)Nc4ccnc(C(F)(F)F)c4)c(Cl)c3)c21	Criterion met

# input Say whether CN1CCN(CCNc2nc3cc(Oc4ccc(NC(=O)Nc5cc(C(F)(F)F)ccc5F)cc4)ccc3[nH]2)CC1.Cl.Cl [GW768504] shows %Inh of 20% or more.
# output Criterion not met

# input Say whether "O=C(Nc1ccccc1)c1cccc(Oc2ccc3nccn3n2)c1" shows %Inh of 20% or more.
# output Criterion met

# input Say whether Cc1nnc(-c2ccc3occ(-c4ccc(S(C)=O)cc4)c3n2)o1 (centres unmarked) shows %Inh of 20% or more.
# output Criterion not met

# input Say whether "O=C(Nc1cccc(C(F)(F)F)c1)c1cccc(Oc2ccc3nccn3n2)c1" shows %Inh of 20% or more.
# output Criterion met

# input Say whether "CC(=O)Nc1ccc(-c2cc3ncnc(SCC(=O)O)c3s2)cc1" shows %Inh of 20% or more.
# output Criterion not met

# input Say whether C[C@@H](Oc1cc(-n2cnc3ccc(-c4ccncc4)cc32)sc1C(N)=O)c1ccccc1Cl [GSK483724] shows %Inh of 20% or more.
# output Criterion not met

# input Say whether COc1cc(Nc2nccc(N3CCC(NC(=O)c4cccc(C#N)c4)C3)n2)cc(OC)c1OC (centres unmarked) [GSK1379751] shows %Inh of 20% or more.
# output Criterion met

# input Say whether Cc1ccc(Nc2ccnc(Nc3ccc4c(c3)CS(=O)(=O)C4)n2)cc1O.Cl [GW579362] shows %Inh of 20% or more.
# output Criterion met

# input Say whether CC(C)S(=O)(=O)N1CCN(Cc2ccc3c(c2)nc(NC(=O)c2ccsc2)n3C[C@H](O)c2ccccc2)CC1 [GW635815] shows %Inh of 20% or more.
# output Criterion met

# input Say whether C[C@@H](Oc1cc(-n2cnc3cc(-c4ccncc4)ccc32)sc1C(N)=O)c1ccccc1Cl [GSK479719] shows %Inh of 20% or more.
# output Criterion met

# input Say whether Cc1ccc(CC(=O)N2CCc3cc(-c4cn(C)c5ncnc(N)c45)ccc32)cc1 [GSK2634758] shows %Inh of 20% or more.
# output Criterion met

# input Say whether Nc1nccc(-c2ccc3c(N)n[nH]c3c2)n1 [GSK1034945] shows %Inh of 20% or more.
# output Criterion not met
